Tested on: CAF#7 (primary prostate cancer-associated fibroblasts of myCAF-like type)
Assay: drug sensitivity score (DSS2, normalised partial AUC of dose-response, 72 h CellTiter-Glo viability) (DSS (dimensionless)); higher = more sensitive (stronger growth inhibition / cytotoxicity); extreme values may be limits of the assay
Reported Property: drug sensitivity score

INSERT INTO results (molecule, reported_property, val) VALUES
  ('CC(C)n1nc(-c2ccc3oc(N)nc3c2)c2c(N)ncnc21 [Sapanisertib] (tested concentration range 0.1-1000 nM)', 'drug sensitivity score', 13.2),
  ('CCN(CC)CCNC(=O)c1c(C)[nH]c(/C=C2\C(=O)Nc3ccc(-c4csc(-c5ccccc5)n4)cc32)c1C [Amcasertib] (tested concentration range 1-10000 nM)', 'drug sensitivity score', 0),
  ('Cc1c(-c2ccc(N3CCc4cccc(C(=O)Nc5nc6ccccc6s5)c4C3)nc2C(=O)O)cnn1CC12CC3CC(CC(C3)C1)C2 (tested concentration range 0.1-1000 nM)', 'drug sensitivity score', 0.4),
  ('CC(O)c1cc(C(=O)N[C@@H](C)Cn2ccc(-c3ccc(C#N)c(Cl)c3)n2)n[nH]1 (some centres not stated) [Darolutamide] (tested concentration range 0.2-2500 nM)', 'drug sensitivity score', 0),
  ('Cc1c(-c2c(-c3ccc(F)o3)sc3ncnc(O[C@H](Cc4ccccc4OCc4ccnn4CC(F)(F)F)C(=O)O)c23)ccc(OCCN2CCN(C)CC2)c1Cl (tested concentration range 0.1-1000 nM)', 'drug sensitivity score', 0),
  ('CC1(C)CCC(CN2CCN(c3ccc(C(=O)NS(=O)(=O)c4ccc(NCC5CCOCC5)c([N+](=O)[O-])c4)c(Oc4cnc5[nH]ccc5c4)c3)CC2)=C(c2ccc(Cl)cc2)C1 [Venetoclax] (tested concentration range 0.1-1000 nM)', 'drug sensitivity score', 0),
  ('Cn1ncnc1[C@H]1c2n[nH]c(=O)c3cc(F)cc(c23)N[C@@H]1c1ccc(F)cc1 [Talazoparib] (tested concentration range 0.1-1000 nM)', 'drug sensitivity score', 2.9),
  ('CC[C@]1(O)C[C@@H]2CN(CCc3c([nH]c4ccccc34)[C@@](C(=O)OC)(c3cc4c(cc3OC)N(C)[C@H]3[C@@](O)(C(=O)OC)[C@H](OC(C)=O)[C@]5(CC)C=CCN6CC[C@]43[C@@H]65)C2)C1 [Vinblastine] (tested concentration range 0.1-1000 nM)', 'drug sensitivity score', 7.5),
  ('CCOC(=O)CCNc1cc(N2CCc3ccccc3CC2)nc(-c2ccccn2)n1 [GSK-J4] (tested concentration range 10-100000 nM)', 'drug sensitivity score', 0),
  ('O=c1[nH]cc(F)c(=O)[nH]1 [Fluorouracil] (tested concentration range 1-10000 nM)', 'drug sensitivity score', 2.1),
  ('Cc1ccccc1CN1C(=O)C2=C(CCN(Cc3ccccc3)C2)N2CCN=C12 [ONC201] (tested concentration range 2.5-25000 nM)', 'drug sensitivity score', 3.8),
  ('CCN1CCN(c2ccc(Nc3cc(N(C)C(=O)Nc4c(Cl)c(OC)cc(OC)c4Cl)ncn3)cc2)CC1 [Infigratinib] (tested concentration range 0.1-1000 nM)', 'drug sensitivity score', 0),
  ('CCc1cncnc1N1CCN(Cc2nc3ccc(C(F)(F)F)cc3[nH]2)CC1 (tested concentration range 1-10000 nM)', 'drug sensitivity score', 0.9),
  ('NC(=O)NO [Hydroxyurea] (tested concentration range 100-1000000 nM)', 'drug sensitivity score', 0),
  ('O=c1[nH]c(=O)n([C@H]2C[C@H](O)[C@@H](CO)O2)cc1F [Floxuridine] (tested concentration range 1-10000 nM)', 'drug sensitivity score', 3),
  ('O=C(O)c1ccc(O)c2ncccc12 [IOX-1] (tested concentration range 10-100000 nM)', 'drug sensitivity score', 0.4),
  ('CC[C@H](NC(=O)[C@H](C)NC)C(=O)N1C[C@@H](O)C[C@H]1Cc1c(-c2[nH]c3cc(F)ccc3c2C[C@@H]2C[C@H](O)CN2C(=O)[C@H](CC)NC(=O)[C@H](C)NC)[nH]c2cc(F)ccc12 [Birinapant] (tested concentration range 0.1-1000 nM)', 'drug sensitivity score', 0),
  ('N#Cc1ccc(COC[C@H]2O[C@@H](n3c(NCc4ccc(Cl)c(Cl)c4)nc4c(N)ncnc43)[C@H](O)[C@@H]2O)cc1 (tested concentration range 1-10000 nM)', 'drug sensitivity score', 4.5),
  ('CN(C)C(=O)c1cc2cnc(Nc3ccc(N4CCNCC4)cn3)nc2n1C1CCCC1 [Ribociclib] (tested concentration range 1-10000 nM)', 'drug sensitivity score', 3),
  ('C[C@@H](Oc1cc(-c2cnn(C3CCNCC3)c2)cnc1N)c1c(Cl)ccc(F)c1Cl [Crizotinib] (tested concentration range 0.1-1000 nM)', 'drug sensitivity score', 0.8),
  ('Cc1ccc(NC(=O)c2ccc(CN3CCN(C)CC3)cc2)cc1Nc1nc(-c2cccnc2)cs1 [Masitinib] (tested concentration range 1-10000 nM)', 'drug sensitivity score', 1.9),
  ('CNc1nc(Nc2cn(C(C)(C)C#N)nc2C)ncc1C(F)(F)F [GNE-0877] (tested concentration range 0.1-1000 nM)', 'drug sensitivity score', 0);
